- Test system: α4β1 integrin (Homo sapiens, UniProt P05556+P13612)
- Construct: endogenous in cells; host or cells: Ramos cells
- Sequence (P13612 34-1032): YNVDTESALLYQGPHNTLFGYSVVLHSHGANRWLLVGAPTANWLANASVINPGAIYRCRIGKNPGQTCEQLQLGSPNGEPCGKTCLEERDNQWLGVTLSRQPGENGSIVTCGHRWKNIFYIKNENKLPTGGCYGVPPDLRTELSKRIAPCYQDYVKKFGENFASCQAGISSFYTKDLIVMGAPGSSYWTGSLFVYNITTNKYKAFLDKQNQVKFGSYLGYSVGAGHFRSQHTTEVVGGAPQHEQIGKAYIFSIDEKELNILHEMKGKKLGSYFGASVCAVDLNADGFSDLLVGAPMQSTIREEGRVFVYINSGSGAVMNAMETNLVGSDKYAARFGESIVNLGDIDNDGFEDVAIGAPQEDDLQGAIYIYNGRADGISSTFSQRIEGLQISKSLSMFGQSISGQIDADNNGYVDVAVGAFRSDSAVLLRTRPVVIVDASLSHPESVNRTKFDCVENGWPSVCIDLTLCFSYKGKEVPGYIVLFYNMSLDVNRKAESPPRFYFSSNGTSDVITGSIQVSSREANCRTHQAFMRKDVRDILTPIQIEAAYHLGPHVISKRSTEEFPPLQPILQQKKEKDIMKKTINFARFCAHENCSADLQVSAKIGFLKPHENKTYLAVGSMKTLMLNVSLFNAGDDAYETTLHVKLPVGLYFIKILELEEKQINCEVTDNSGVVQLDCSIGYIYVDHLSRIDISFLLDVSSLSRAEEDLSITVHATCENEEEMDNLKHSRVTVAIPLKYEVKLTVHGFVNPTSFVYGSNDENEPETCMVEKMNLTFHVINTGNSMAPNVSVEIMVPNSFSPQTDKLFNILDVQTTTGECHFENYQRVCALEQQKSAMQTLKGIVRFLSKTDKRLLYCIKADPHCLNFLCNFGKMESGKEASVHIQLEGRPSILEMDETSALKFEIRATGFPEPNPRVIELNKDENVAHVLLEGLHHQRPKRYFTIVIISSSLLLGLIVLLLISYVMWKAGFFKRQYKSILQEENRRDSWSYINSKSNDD
- Sequence (P05556 21-798): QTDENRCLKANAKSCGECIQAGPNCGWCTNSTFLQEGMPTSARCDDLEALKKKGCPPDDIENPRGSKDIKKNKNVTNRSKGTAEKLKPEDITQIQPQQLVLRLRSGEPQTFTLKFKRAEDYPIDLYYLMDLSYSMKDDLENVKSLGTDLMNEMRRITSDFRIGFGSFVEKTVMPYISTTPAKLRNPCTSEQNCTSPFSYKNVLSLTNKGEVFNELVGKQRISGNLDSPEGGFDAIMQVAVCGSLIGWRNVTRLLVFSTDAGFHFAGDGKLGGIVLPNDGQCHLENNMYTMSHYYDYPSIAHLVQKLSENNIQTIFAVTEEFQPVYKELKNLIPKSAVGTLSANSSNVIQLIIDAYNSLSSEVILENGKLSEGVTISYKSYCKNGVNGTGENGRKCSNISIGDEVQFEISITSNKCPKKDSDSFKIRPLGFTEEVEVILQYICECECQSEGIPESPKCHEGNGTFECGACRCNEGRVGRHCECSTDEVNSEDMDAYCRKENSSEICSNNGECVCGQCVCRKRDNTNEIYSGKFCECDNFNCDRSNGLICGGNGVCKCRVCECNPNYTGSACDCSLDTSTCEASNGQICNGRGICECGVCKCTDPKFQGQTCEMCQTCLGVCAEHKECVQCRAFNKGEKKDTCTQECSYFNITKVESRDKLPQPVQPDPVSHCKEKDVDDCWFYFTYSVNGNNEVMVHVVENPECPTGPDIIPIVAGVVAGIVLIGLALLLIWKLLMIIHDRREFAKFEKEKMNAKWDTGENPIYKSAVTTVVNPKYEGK
- Measurement protocol: Adhesion of calcein-labeled Ramos cells to CS1 (fibronectin) peptide conjugated ovalbumin
- Type: cell-based
- Assay context: Table 4; Ramos cell adhesion to CS1 conjugated ovalbumin, 30 minutes at 37° C.
Each entry below carries its reported IC50.

>  <Compound>
CC(C)C[C@H](CC(=O)O)NC(=O)Nc1c(N2CCOCC2)ccn(Cc2ccccc2Cl)c1=O

>  <Test system>
α4β1 integrin (Homo sapiens, UniProt P05556+P13612)

>  <Test result>
0.1 µM

$$$$
>  <Compound>
Cc1ccc([C@H](CC(=O)O)NC(=O)Nc2cccn(Cc3ccc(Cl)s3)c2=O)cc1

>  <Test system>
α4β1 integrin (Homo sapiens, UniProt P05556+P13612)

>  <Test result>
1.3 µM

$$$$
>  <Compound>
Cc1ccc([C@H](CC(=O)O)NC(=O)Nc2cccn(Cc3c(C)noc3C)c2=O)cc1

>  <Test system>
α4β1 integrin (Homo sapiens, UniProt P05556+P13612)

>  <Test result>
3 µM

$$$$
>  <Compound>
O=C(O)CC(NC(=O)Nc1cccn(Cc2ccccc2Cl)c1=O)c1ccc(Cl)cc1 (stereo not shown)

>  <Test system>
α4β1 integrin (Homo sapiens, UniProt P05556+P13612)

>  <Test result>
0.4 µM

$$$$
>  <Compound>
Cc1ccc([C@H](CC(=O)O)NC(=O)Nc2cccn(Cc3cccs3)c2=O)cc1

>  <Test system>
α4β1 integrin (Homo sapiens, UniProt P05556+P13612)

>  <Test result>
0.6 µM

$$$$
>  <Compound>
Cc1ccc([C@H](CC(=O)O)NC(=O)Nc2c(O)ccn(Cc3ccccc3)c2=O)cc1

>  <Test system>
α4β1 integrin (Homo sapiens, UniProt P05556+P13612)

>  <Test result>
0.03 µM

$$$$

Q: Fill in reported IC50 for this entry: Cc1ccc([C@H](CC(=O)O)NC(=O)Nc2cccn(Cc3cc(N)ccc3Br)c2=O)cc1
Result: 0.08 µM

Q: Fill in IC50 for record O=C(O)CC(NC(=O)Nc1c(O)ccn(Cc2ccccc2Cl)c1=O)c1ccc(Cl)c(Cl)c1 (stereo not shown)
Result: 0.04 µM

Q: Look up and state reported IC50 for Cc1ccc([C@H](CC(=O)O)NC(=O)Nc2cccn(Cc3c(N)cccc3Cl)c2=O)cc1
Result: 2 µM

Q: Given Cc1ccc([C@H](CC(=O)O)NC(=O)Nc2cccn(Cc3cccc(O)c3)c2=O)cc1 , respond with its IC50.
Result: 0.2 µM

Q: Look up and state reported IC50 for Cc1ccc([C@H](CC(=O)O)NC(=O)Nc2cccn(Cc3ccc(Cl)cc3Cl)c2=O)cc1
Result: 0.4 µM

Q: Please give measured IC50 of the following entry: CCOc1ccc([C@H](CC(=O)O)NC(=O)Nc2c(O)ccn(Cc3ccccc3Cl)c2=O)cc1
Result: 0.02 µM

---

- Test system: α4β1 integrin (Homo sapiens, UniProt P05556+P13612)
- Construct: endogenous in cells; host or cells: Ramos cells
- Measurement protocol: Adhesion of calcein-labeled Ramos cells to CS1 (fibronectin) peptide conjugated ovalbumin
- Type: cell-based
- Assay context: Table 3; Ramos cell adhesion to CS1 conjugated ovalbumin, 30 minutes at 37° C.
criterion met if IC50 is below 10 nM. criterion not met if not; exact matches included in criterion not met.

The following compounds have reported results that may help.
>  <Compound>
COc1ccc([C@H](CC(=O)O)NC(=O)Nc2c(C)ccn(Cc3ccccc3Cl)c2=O)cc1

>  <Class>
criterion met

$$$$
>  <Compound>
Cc1ccc([C@H](CC(=O)O)NC(=O)Nc2c(N3CCN(C)CC3)ccn(Cc3ccccc3Cl)c2=O)cc1

>  <Class>
criterion met

$$$$
>  <Compound>
O=C(O)CC(NC(=O)Nc1c(O)ccn(Cc2ccccc2Cl)c1=O)c1ccc(Cl)cc1 (centres unmarked)

>  <Class>
criterion not met

$$$$
>  <Compound>
CCNC(=O)N(CC)C(=O)Nc1ccn(Cc2ccccc2Cl)c(=O)c1NC(=O)N[C@@H](CC(=O)O)c1ccc(C)cc1

>  <Class>
criterion met

$$$$
>  <Compound>
COc1cc([C@H](CC(=O)O)NC(=O)Nc2c(O)ccn(Cc3ccccc3Cl)c2=O)cc(OC)c1OC

>  <Class>
criterion not met

$$$$
>  <Compound>
O=C(O)C[C@H](NC(=O)Nc1c(O)ccn(Cc2ccccc2Cl)c1=O)c1cccc(C(F)(F)F)c1

>  <Class>
criterion not met

$$$$

Could you now look at the following compound, please?
Q: Please let me know if COc1ccn(Cc2ccccc2Cl)c(=O)c1NC(=O)N[C@@H](CC(=O)O)c1ccc(C)cc1 shows IC50 below 10 nM.
Result: criterion not met

Hello, the source for this data is patent US6972296B2, in case you need it.
